System: MCF7
Test: NCI tumour cell line growth inhibition, 48 h
Calls of active or inactive are those of the source. No stated cut-off is given here; in the data, active = GI50 up to about 1.1 µM and inactive = higher.
Tick one outcome: active, inactive

Take a look at these entries with their results.
| COMPOUND | CATEGORY |
| --- | --- |
| O=C(O)c1ccc(NC(c2ccccc2)c2ccc3cccnc3c2O)cc1 (centres undefined) | inactive |
| CCOCC(=O)N[C@H]1CCc2cc(OC)c(OC)c(OC)c2-c2ccc(OC)c(=O)cc21 | active |
| COc1ccc(NC(=O)/C(=N/NC(N)=S)C2C(=O)NC(=S)NC2=O)c(OC)c1 | inactive |

**Query** Status in this test for "Nc1ccccc1/C=C\c1ccccc1" ?
**Result** inactive

**Query** Status in this test for "COc1c(O)ccc(C2=Cc3ccc(O)cc3OC2)c1OC" ?
**Result** inactive
